Tested on: S. flexneri 5a M90T
Assay: MIC in tryptic soy broth, S. flexneri
Format: cell-based, Shigella flexneri
Conditions: Shigella flexneri, 5AM90T, read-out: MIC (μM) TSB
Rule: MIC below 0.06 µM gives Yes. Equal to or above 0.06 µM gives No.

Query: Criterion: MIC strictly below 0.06 µM. Is it met by CC1Sc2c(C(=O)O)c(=O)c3cc(F)c(N4CCNCC4)cc3n21 (stereo not drawn) ?
Reply: Yes

***
Query: I wonder whether N[C@@H]1[C@H]2CN(c3nc4c(cc3F)c(=O)c(C(=O)O)cn4-c3ccc(F)cc3F)C[C@@H]12 has MIC below 0.06 µM. Can you tell?
Reply: No

Query: Please check: MIC for CCN1CCN(c2cc3c(cc2F)c(=O)c(C(=O)O)cn3C2CC2)CC1 , strictly under 0.06 µM or not?
Reply: No

Query: Could you please tell me whether MIC recorded for CCCCC(CC)CNC(=N)NC(=N)NCCCCCCNC(=N)NC(=N)NCC(CC)CCCC (stereo not drawn) is less than 0.06 µM?
Reply: No

Query: hey, is MIC for Cn1c(COP(=O)(NCCBr)NCCBr)cnc1[N+](=O)[O-] [Evofosfamide] lower than 0.06 µM or not?
Reply: No

Query: For this compound, is MIC lower than 0.06 µM? CN1CCN(c2cc3c(cc2F)c(=O)c(C(=O)O)cn3-c2ccc(F)cc2)CC1
Reply: No
